System: B. cereus PCM 482
ASSAY_OVERVIEW: MIC, broth microdilution
Type: cell-based, Bacillus cereus
TEST_SETTINGS: B. cereus PCM 482, 24 h
Where a SMILES comes first, the peptide text is derived from it. [ ]: non-standard residue; d: D form. The star is where a group is joined. Lauroyl = CCCCCCCCCCCC(=O)*; Pentanoyl = CCCCC(=O)*; AEEA = NCCOCCOCC(=O)O; Ahx = NCCCCCC(=O)O; βAla = NCCC(=O)O
RECORDED_METRIC: MIC100

MOLECULE: CCCCCCCCCCCC(=O)N[C@H](C(=O)N[C@@H](CCCCN)C(=O)N[C@@H](CCCCN)C(=O)N[C@H](C(=O)N[C@@H](CC(C)C)C(=O)N[C@@H](CO)C(=O)N[C@@H](CCCCN)C(=O)N[C@H](C(=O)N[C@@H](CCCCN)C(=O)N[C@@H](CCCCN)C(=O)N[C@@H](CC(C)C)C(=O)N[C@@H](CC(C)C)C(N)=O)[C@@H](C)CC)[C@@H](C)CC)[C@@H](C)CC [Compound C12-DK5] (Lauroyl-IKKILSKIKKLL-NH2)
MIC100: 12.5 µg/mL

MOLECULE: CCCCC(=O)NCCC(=O)N[C@@H](Cc1c[nH]cn1)C(=O)O
MIC100: Non-inhibitory

MOLECULE: CC[C@H](C)[C@H](NC(=O)CCCCCN)C(=O)N[C@@H](CCCCN)C(=O)N[C@@H](CCCCN)C(=O)N[C@H](C(=O)N[C@@H](CC(C)C)C(=O)N[C@@H](CO)C(=O)N[C@@H](CCCCN)C(=O)N[C@H](C(=O)N[C@@H](CCCCN)C(=O)N[C@@H](CCCCN)C(=O)N[C@@H](CC(C)C)C(=O)N[C@@H](CC(C)C)C(N)=O)[C@@H](C)CC)[C@@H](C)CC [AHX-DK5] (H-[Ahx]IKKILSKIKKLL-NH2)
MIC100: 50 µg/mL

MOLECULE: CCCCCCCCCCCC(=O)NCCC(=O)N[C@@H](Cc1c[nH]cn1)C(=O)O [Compound C12-CAR, CH3(CH2)10C(O)-βAH]
MIC100: Non-inhibitory

MOLECULE: CCCCC(=O)NCCC(=O)N[C@@H](Cc1c[nH]cn1)C(=O)NCCOCCOCC(=O)N[C@H](C(=O)N[C@@H](CCCCN)C(=O)N[C@@H](CCCCN)C(=O)N[C@H](C(=O)N[C@@H](CC(C)C)C(=O)N[C@@H](CO)C(=O)N[C@@H](CCCCN)C(=O)N[C@H](C(=O)N[C@@H](CCCCN)C(=O)N[C@@H](CCCCN)C(=O)N[C@@H](CC(C)C)C(=O)N[C@@H](CC(C)C)C(N)=O)[C@@H](C)CC)[C@@H](C)CC)[C@@H](C)CC [C5-CAR-PEG-DK5] ({Pentanoyl-βAla}-H[AEEA]IKKILSKIKKLL-NH2)
MIC100: >50 µg/mL

Let us move to another entry and its MIC100.
QUERY: Entry CC[C@H](C)[C@H](NC(=O)COCCOCCNC(=O)[C@H](Cc1c[nH]cn1)NC(=O)CCN)C(=O)N[C@@H](CCCCN)C(=O)N[C@@H](CCCCN)C(=O)N[C@H](C(=O)N[C@@H](CC(C)C)C(=O)N[C@@H](CO)C(=O)N[C@@H](CCCCN)C(=O)N[C@H](C(=O)N[C@@H](CCCCN)C(=O)N[C@@H](CCCCN)C(=O)N[C@@H](CC(C)C)C(=O)N[C@@H](CC(C)C)C(N)=O)[C@@H](C)CC)[C@@H](C)CC [CAR-PEG-DK5] (H-[βAla]H[AEEA]IKKILSKIKKLL-NH2; N-terminus and C-terminus assumed) , system B. cereus PCM 482: what MIC100 was measured?
RESULT: >50 µg/mL
